system: CAKI-1 renal; test: NCI tumour cell line growth inhibition, 48 h
outcomeMeasure: TGI

Known results for compounds:
Documented TGI of COC(=O)c1ccc2c(c1)C(=O)c1c-2n(CCCN=[N+]=[N-])c(=O)c2cc([N+](=O)[O-])ccc12 : > 100 µM

The recorded TGI for entry CC(=Nc1ccc(S(N)(=O)=O)cc1)c1c(O)[nH]c2ccccc12 equals > 25 µM

In plain terms, CCNc1ncnc2sc(SCc3ccccc3)nc12 has a documented TGI of > 100 µM

response.value for Cc1cc2c(cc1Cl)S/C(=C/C(=O)O)C(Nc1cccc3nsnc13)=NS2(=O)=O (field: TGI) = > 76.6 µM

The reported value for COP(=O)(OC)C(Nc1ccc(Cc2ccc(NC(c3ccco3)P(=O)(OC)OC)cc2)cc1)c1ccco1 (stereo not given) in terms of TGI is 86.3 µM

# batch size: 3; output TGI per entry
1. COc1cc(CNc2nc3ccc(C(F)(F)F)cc3nc2-c2ccccc2)cc(OC)c1OC
2. CC1(O)CCn2c(=O)c3cc4ccccc4cc3c(=O)n2C1O (stereo not given)
3. CCCCCCC(C)CCCCCCCCCCC(=O)O (stereo not given)

## Output
["> 100 µM", "> 100 µM", "> 100 µM"]

Report TGI for each item below.
1. COC(=O)C1(O)C(c2ccccc2)=NC2(C)CCCC21 (stereo not given)
2. Cc1cc(C)n(C2=NS(=O)(=O)c3ccccc3N2C)n1

## Output
1. > 100 µM
2. > 100 µM

* * *

test system: SF-268 CNS; assay: NCI tumour cell line growth inhibition, 48 h; in the data active means GI50 below about 0.43 µM; inactive means the rest
Output constraint: value belongs to Y for active, N for inactive

Worked set:
## Input // return assay outcome for c1ccc(-c2nc(N3CCCNCC3)c3nc(-c4ccccc4)oc3n2)cc1
## Output N

## Input Hello, I am checking results. What call was entered for O=C1c2ccccc2-c2c1c1c(NCCCO)nc3ccccc3c1n2Cc1ccccc1 ?
## Output N

## Input Hi, do you know how COc1ccc(-c2cnoc2-c2cc(OC)c3c(c2)OCCO3)cc1 came out in this test?
## Output Y

## Input What is the recorded call for this molecule in the test? Cc1cc2c(cc1Cl)S/C(=C/C(=O)O)C(Nc1cccc3nsnc13)=NS2(=O)=O
## Output N

## Input Dear all, I need the recorded test outcome for COc1cc2nc(-c3ccc(C(F)(F)F)cc3)cc(OCCCN3CCCC3)c2cc1OC , thank you.
## Output N

Continuing:
## Input # outcome recorded in this test, key = CCCCCCCCCCCCCC[n+]1cccc(C(N)=O)c1
## Output N

## Input Please state the recorded outcome for this molecule: [2H]c1nc(=Nc2cc(NC(=O)C=C)c(N(C)CCN(C)C)cc2OC)[nH]c(-c2cn(C([2H])([2H])[2H])c3ccccc23)c1[2H]
## Output N

## Input // param item: O=C(/C=C/c1cccc(O)c1)c1cccc(-n2cc(-c3ccc4ccccc4c3)[nH]c2=O)c1 ; yields the recorded call
## Output N

## Input Record lookup: outcome of this test for c1cnn2ncc(-c3ccnc(Nc4ccc5c(c4)OCCO5)n3)c2c1 ?
## Output Y

## Input Answer briefly: the call reported for COc1ccc(C2=C(N3CCc4ccccc43)C(=O)NC2=O)cc1 in this assay.
## Output N

* * *

Exercise: for every item that follows, state its recorded TGI.
tested on: MALME-3M melanoma; test: NCI tumour cell line growth inhibition, 48 h
Answers are plain numbers, in µM.

Some entries whose results are on file:
// sample COc1ccc(-n2nc(C)c3c(Nc4ccc(NC(=O)Nc5ccc(Cl)c(C(F)(F)F)c5)cc4)ncnc32)cc1 , its TGI was 3.35

For this compound ( Cc1c2ccncc2c(C)c2c1[nH]c1ccc(O)c(OCC(F)(F)F)c12 ), measured TGI is 22.3

TGI reported for this compound Cc1ccccc1/C=C/C(=O)c1ccccc1 : 35

Value of TGI reported for the compound Cc1cc(O)c(-c2cc(O)c(C)cc2O)cc1O is 25.5

***
For record O=C(CC1(O)C(=O)Nc2c(Cl)ccc(Cl)c21)c1ccc(Cl)cc1Cl (stereo unspecified) the listed TGI is 34.9

* * *

system: DMS 273 small cell lung; experiment: NCI tumour cell line growth inhibition, 48 h
So I've got a bunch of molecules here, and I need their TGI values.
One number for each entry, in µM.

Before answering, review these 3 worked examples.
TGI in this record for C=C1C(=O)C23C(O)CC4C5(C)CCCC4(C(O)OC5)C2C(OC(C)=O)CC1C3O (centres undefined) : 41.3

get_value(item= Cc1c(C)c(CC(=O)N2CC2)c(C)c(C)c1CC(=O)N1CC1 , readout=TGI) returns 13.2

Value of measured TGI for the entry CCCCCCCCCCCCCCCCCCOCC(COCCOCC[N+]1(CCCCCC(=O)[O-])CCCC1)Oc1ncccn1 (centres undefined) : 2.26

Below is a list of molecules. For each, state its recorded TGI.
1. Cc1ccc2oc(=O)c(-c3ccccc3)nc2c1
2. C[C@]12C/C(=C/O)C(=O)C(O)=C1CC[C@@H]1C2CC[C@@]2(C)C1CC[C@@H]2O (some centres undefined)
3. Nc1ccccc1C(=O)C(Br)C(Br)c1ccc2c(c1)OCO2 (centres undefined)
4. O=C(CC1(O)C(=O)Nc2c(Cl)ccc(Cl)c21)c1ccc(Cl)cc1Cl (centres undefined)
5. Cc1c2ccncc2c(C)c2c1[nH]c1ccc(O)c(OCC(F)(F)F)c12

## Output
37.6
51.1
34
37.8
4.87

Per the record, N#CC(C#N)=c1c2nsnc2c(=C(C#N)C#N)c2nsnc12 has TGI of 3.24

* * *

tested on: U251 CNS; test: NCI tumour cell line growth inhibition, 48 h
Please provide measured TGI for the entries that follow.

The measured TGI associated with COc1ccc(Oc2cnn(C(Br)(Br)C(C)=O)c(=O)c2Br)cc1 reads 27.8 µM

Record C[C@]12CC[C@@H]3c4ccc(O)cc4CC[C@H]3[C@@H]1C/C(=C\c1ccc(C#N)cc1)C2=O . Reported TGI: > 100 µM

Given item Cc1cc(C)nc(NS(=O)(=O)c2ccc(NC(=O)c3cccc4c(NNc5ccc(S(=O)(=O)N=C(N)N)cc5)c5ccccc5nc34)cc2)n1 , the value recorded as its TGI is > 50 µM

Proceed to the following item.
Notebook: COc1ccc2c(NCCCCCCNc3c4ccccc4nc4cc(OC)ccc34)c3ccccc3nc2c1 , TGI read as 1.47 µM

* * *

system: SK-MEL-5 melanoma; test: NCI tumour cell line growth inhibition, 48 h
outcomeMeasure: TGI (µM)
Numbers only, in µM.

Take a look at these entries with their results.
CC(C)/C(Cl)=N/OC(=O)Nc1ccc(OC(F)(F)F)cc1 yielded TGI of 21.3

Record N#Cc1c(-c2ccccc2)c2c([nH]c1=O)-c1cc([N+](=O)[O-])ccc1CCC2 , field TGI: 76

TGI reported for this compound CCN(CC)c1ccc(/C=C/C2=[N+](C)c3ccccc3C2(C)C)c(C)c1 : 0.0854

Quick note, TGI for C=CC(=O)N1C/C(=C\c2ccc(Cl)cc2)C(=O)/C(=C/c2ccc(Cl)cc2)C1 landed at 5.11

For reference, reported TGI for c1ccc(-c2nc(N3CCCNCC3)c3nc(-c4ccccc4)oc3n2)cc1 stands at 3.18

Dear reader, for each entry below, please note its TGI.
1. c1ccc2[nH]c(CNc3ccc(C4C[Se]N=N4)cc3)nc2c1 (stereo not given)
2. COc1nc2c(N3CCCC3)nc(N3CCNCC3)nc2nc1NCc1ccccc1
3. CC(C)[Si](OC/C(=C/COC(C)(C)C)[C@H]1CC=C(C(=O)c2ccccc2N2CN(C)C(=O)N(C)C2)C1)(C(C)C)C(C)C
4. CN(C)c1ccc(Cc2cc3c(O)ccc(O)c3cc(Cc3ccc(N(C)C)cc3)c2=O)cc1

## Output
[46.4, 2.88, 23.1, 39.3]

* * *

test system: TK-10 renal; experiment: NCI tumour cell line growth inhibition, 48 h; in the data active = GI50 below about 0.43 µM; inactive = the rest
Form entry, call: pick from active, inactive

## Input Each compound tested received a call. Report the one for O=C(NCCN1CCNCC1)c1ccc(Nc2nc3ccccc3c3occc23)cc1 .
## Output inactive

## Input Recorded test call requested for COc1cccc(COc2cc(-n3cnc4ccccc43)sc2C(N)=O)c1
## Output inactive

* * *

tested on: ACHN renal; assay: NCI tumour cell line growth inhibition, 48 h; in the data active means GI50 below about 0.43 µM; inactive means the rest
Assign a class; possible classes are true (1) = active, false (0) = inactive

Recorded results for 2 compounds are shown here.
## Input Hey, what did the test say about OCc1ccc(N2CCOCC2)cc1Cl ?
## Output false (0)

## Input Recorded test outcome, item Nc1cc(-c2ccc(Cl)cc2)nn1-c1nnc(/C=C/c2ccco2)c(=O)[nH]1
## Output false (0)

Now consider a different compound.
## Input Please state the recorded outcome for this compound: CSc1ccc(N(C)c2nc(C)nc3c2CCC3)cc1
## Output true (1)
